Target: T1, human IL1RAP (hu-IL1RAP) on human cells (human, UniProt Q9NPH3 21-570)
T1 sequence: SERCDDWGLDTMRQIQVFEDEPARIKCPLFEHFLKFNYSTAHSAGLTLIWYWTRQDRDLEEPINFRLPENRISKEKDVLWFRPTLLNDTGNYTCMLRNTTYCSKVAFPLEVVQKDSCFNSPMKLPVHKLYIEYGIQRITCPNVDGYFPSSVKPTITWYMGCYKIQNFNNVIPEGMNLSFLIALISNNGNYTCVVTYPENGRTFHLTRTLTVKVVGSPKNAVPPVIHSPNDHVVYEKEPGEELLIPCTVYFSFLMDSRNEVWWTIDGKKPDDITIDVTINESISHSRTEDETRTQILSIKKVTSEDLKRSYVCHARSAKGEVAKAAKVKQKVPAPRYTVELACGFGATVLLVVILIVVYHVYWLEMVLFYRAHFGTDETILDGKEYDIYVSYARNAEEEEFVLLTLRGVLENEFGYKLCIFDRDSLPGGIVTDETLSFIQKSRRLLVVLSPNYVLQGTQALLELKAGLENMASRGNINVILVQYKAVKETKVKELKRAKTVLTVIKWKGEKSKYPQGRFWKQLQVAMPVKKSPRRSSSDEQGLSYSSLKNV
Assay: cell-based or functional assay
Assignment: determine reported HEK-Blue, IL-1β, % inhibition at 100 nM (IgG) for the given binders.
Numbers only, in %.

>>> experimental_value("K10 IgG (VL-A51Y) (antibody, V domains shown) VH: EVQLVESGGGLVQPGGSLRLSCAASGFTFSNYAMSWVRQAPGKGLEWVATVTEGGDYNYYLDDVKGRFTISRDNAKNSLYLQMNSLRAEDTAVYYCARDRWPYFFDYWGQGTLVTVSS VL: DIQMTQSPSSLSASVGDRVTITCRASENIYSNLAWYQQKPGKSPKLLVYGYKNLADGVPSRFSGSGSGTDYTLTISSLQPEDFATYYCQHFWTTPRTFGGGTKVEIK")
100
>>> experimental_value("h11C5 variant K13/H2 IgG (YID) (antibody, V domains shown, Human IgG1 N297G; also called 11C5-YID) VH: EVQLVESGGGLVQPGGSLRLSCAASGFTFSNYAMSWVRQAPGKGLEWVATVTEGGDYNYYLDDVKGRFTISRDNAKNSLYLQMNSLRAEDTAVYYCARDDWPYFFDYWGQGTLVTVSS VL: DIQMTQSPSSLSASVGDRVTITCRASENIYSNLAWYQQKPGKSPKLLVYGYKNLADGVPSRFSGSGSGTDYTLTISSLQPEDFATYYCQHFITTPRTFGGGTKVEIKR")
100

Moving on to the next binder.
Q: Field request: HEK-Blue, IL-1β, % inhibition at 100 nM (IgG) | item: Parent IgG Ab (full-length IgG of h11C5_C59Y/A43S) (antibody, V domains shown) VH: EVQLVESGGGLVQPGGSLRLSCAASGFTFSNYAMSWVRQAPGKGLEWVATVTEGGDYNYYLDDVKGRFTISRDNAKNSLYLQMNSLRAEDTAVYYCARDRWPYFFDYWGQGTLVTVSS VL: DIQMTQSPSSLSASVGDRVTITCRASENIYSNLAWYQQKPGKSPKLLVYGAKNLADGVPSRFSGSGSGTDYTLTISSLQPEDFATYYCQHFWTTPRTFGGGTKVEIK
A: 99
